Target: Thymidine phosphorylase (Homo sapiens)
Sequence (P19971 11-482, species assumed): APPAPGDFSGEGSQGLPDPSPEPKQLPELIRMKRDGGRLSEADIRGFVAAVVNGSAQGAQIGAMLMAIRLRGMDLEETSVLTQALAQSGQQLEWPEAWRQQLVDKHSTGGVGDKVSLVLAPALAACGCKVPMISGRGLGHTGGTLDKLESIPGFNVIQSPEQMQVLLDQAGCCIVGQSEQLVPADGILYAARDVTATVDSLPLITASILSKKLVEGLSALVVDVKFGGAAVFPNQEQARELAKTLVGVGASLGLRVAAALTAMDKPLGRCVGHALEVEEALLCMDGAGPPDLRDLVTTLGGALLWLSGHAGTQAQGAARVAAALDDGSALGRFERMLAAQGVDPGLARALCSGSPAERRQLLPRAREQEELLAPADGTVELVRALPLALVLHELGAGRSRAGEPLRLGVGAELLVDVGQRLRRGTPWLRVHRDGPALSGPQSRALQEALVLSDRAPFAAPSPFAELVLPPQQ
Experiment: Stability toward thymidine phosphorylase
Type: in vitro ADME
Conditions: thymidine phosphorylase, pH 7.4
metric: half-life (min)
The response must be a number in min with no trailing unit.

Recall and state the measured half-life for Nc1ccn([C@@H]2O[C@H](CO)[C@@H](O)C2(F)F)c(=O)n1 [Gemcitabine, reference compound] .
6

----------
Test: Microsomal stability
Format: in vitro ADME, human
Conditions: human, human liver microsomes, pH 7.4
metric: half-life (min)
The response must be a number in min with no trailing unit.

Recall and state the measured half-life for Nc1ccn([C@@H]2O[C@H](CO)[C@@H](O)C2(F)F)c(=O)n1 [Gemcitabine, reference compound] .
45.3

----------
Assay: Caco-2 cell monolayer permeability, apical-to-basolateral
Type: in vitro ADME
Details: human, Caco-2
metric: Papp at 2 h, 0.1 mM (×10⁻⁶ cm/s)
The response must be a number in ×10⁻⁶ cm/s with no trailing unit.

Recall and state the measured Papp at 2 h, 0.1 mM for Nc1ccn([C@@H]2O[C@H](CO)[C@@H](O)C2(F)F)c(=O)n1 [Gemcitabine, reference compound] .
1

----------
Assay: Chemical stability in simulated gastric fluid
Format: physicochemical
Settings: simulated gastric fluid (SGF), pH 1.2
metric: half-life

Recall and state the measured half-life for Nc1ccn([C@@H]2O[C@H](CO)[C@@H](O)C2(F)F)c(=O)n1 [Gemcitabine, reference compound] .
> 2 h

----------
I'd appreciate it if you could supply Gemcitabine (%) of species found in cells values for the items below.
System: Caco-2 cells
Test: Uptake study in Caco-2 cells
Format: cell-based
Conditions: Caco-2 uptake without Gly-Pro, 1 h
For clarity, give the value followed by its unit.

Recall and state the measured Gemcitabine (%) of species found in cells for "Nc1ccn([C@@H]2O[C@H](COC(=O)[C@@H](N)Cc3ccccc3)[C@@H](O)C2(F)F)c(=O)n1" .
18%

Recall and state the measured Gemcitabine (%) of species found in cells for Nc1ccn([C@@H]2O[C@H](CO)[C@@H](O)C2(F)F)c(=O)n1 [Gemcitabine, reference compound] .
50%

Recall and state the measured Gemcitabine (%) of species found in cells for "Nc1ccn([C@@H]2O[C@H](COC(=O)[C@H](N)Cc3ccccc3)[C@@H](O)C2(F)F)c(=O)n1" .
31%

Recall and state the measured Gemcitabine (%) of species found in cells for "CC(C)[C@@H](N)C(=O)OC[C@H]1O[C@@H](n2ccc(N)nc2=O)C(F)(F)[C@@H]1O" .
10%

----------
Assay: Chemical stability in simulated intestinal fluid
Format: physicochemical
Settings: simulated intestinal fluid (SIF), pH 6.5
metric: half-life

Recall and state the measured half-life for Nc1ccn([C@@H]2O[C@H](CO)[C@@H](O)C2(F)F)c(=O)n1 [Gemcitabine, reference compound] .
> 2 h

----------
Experiment: Enzymatic stability in AsPC-1 cell homogenates
Assay type: in vitro ADME
Settings: human, AsPC-1 cell homogenates, pH 7.4
metric: half-life (min)
The response must be a number in min with no trailing unit.

Recall and state the measured half-life for Nc1ccn([C@@H]2O[C@H](CO)[C@@H](O)C2(F)F)c(=O)n1 [Gemcitabine, reference compound] .
33.7

----------
System: AsPC-1 cells
Test: Uptake study in AsPC-1 cells
Format: cell-based
Conditions: AsPC-1 uptake, 100 μM, 1 h
metric: Gemcitabine (%) of species found in cells

Recall and state the measured Gemcitabine (%) of species found in cells for "Nc1ccn([C@@H]2O[C@H](COC(=O)[C@H](N)Cc3ccccc3)[C@@H](O)C2(F)F)c(=O)n1" .
87%

Recall and state the measured Gemcitabine (%) of species found in cells for "Nc1ccn([C@@H]2O[C@H](COC(=O)[C@@H](N)Cc3ccccc3)[C@@H](O)C2(F)F)c(=O)n1" .
84%

Recall and state the measured Gemcitabine (%) of species found in cells for "CC(C)[C@@H](N)C(=O)OC[C@H]1O[C@@H](n2ccc(N)nc2=O)C(F)(F)[C@@H]1O" .
77%

Recall and state the measured Gemcitabine (%) of species found in cells for Nc1ccn([C@@H]2O[C@H](CO)[C@@H](O)C2(F)F)c(=O)n1 [Gemcitabine, reference compound] .
90%

----------
Assay: Chemical stability in pH 7.4 phosphate buffer
Format: physicochemical
Conditions: phosphate buffer, pH 7.4
metric: half-life

Recall and state the measured half-life for Nc1ccn([C@@H]2O[C@H](CO)[C@@H](O)C2(F)F)c(=O)n1 [Gemcitabine, reference compound] .
> 2 h
